Test system: P. aeruginosa PAO1-Pore cells
Test: LC–MS quantification of intracellular accumulation, PAO1-Pore;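 also: slope of accumulation versus external concentration fitted as a line through zero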
Details: 40 min incubation, 10-80 µM
Where a name gives a salt, the structure may show the parent alone.
Binarize Concentration slopes of accumulation, PAO1-Pore_40 min at 9; below is Condition met, at or above is Condition not met.

INSERT INTO results (molecule, classification) VALUES
  ('Cc1oc(=O)oc1CN1CCN(c2cc3c(cc2F)c(=O)c(C(=O)O)c2n3C(C)S2)CC1 (stereo not shown) [OU-0000631, PRULIFLOXACIN]', 'Condition not met'),
  ('CC(CCc1ccccc1)NCC(O)c1ccc(O)c(C(N)=O)c1 (stereo not shown) [OU-0000748, Labetalol HCl]', 'Condition not met'),
  ('COc1cnc(NS(=O)(=O)c2ccc(N)cc2)nc1 [OU-0000694]', 'Condition met');

Challenge: # TODO verify Concentration slopes of accumulation, PAO1-Pore_40 min < 9 strictly for this molecule: O=C1CC2(CCCC2)CC(=O)N1CCCCN1CCN(c2ncccn2)CC1 [OU-0000735, Buspirone HCl]
Response given: Condition met

Challenge: # TODO verify Concentration slopes of accumulation, PAO1-Pore_40 min < 9 strictly for this molecule: CS(=O)(=O)O.C[C@H]1COc2c(C3(N)CC3)c(F)cc3c(=O)c(C(=O)O)cn1c23 [OU-0000627, PAZUFLOXACIN MESYLATE]
Response given: Condition met

Challenge: # TODO verify Concentration slopes of accumulation, PAO1-Pore_40 min < 9 strictly for this molecule: CCn1cc(C(=O)O)c(=O)c2cc(F)c(N3CCNC(C)C3)c(F)c21 (stereo not shown) [OU-0000616, LOMEFLOXACIN]
Response given: Condition not met

Challenge: # TODO verify Concentration slopes of accumulation, PAO1-Pore_40 min < 9 strictly for this molecule: O=C(c1ccc(OCCN2CCCCC2)cc1)c1c(-c2ccc(O)cc2)sc2cc(O)ccc12 [OU-0000741, Raloxifene HCl]
Response given: Condition not met

Challenge: # TODO verify Concentration slopes of accumulation, PAO1-Pore_40 min < 9 strictly for this molecule: CCn1cc(C(=O)O)c(=O)c2cc(F)c(N3CCN(C)CC3)cc21 [OU-0000619, PEFLOXACINE MESYLATE]
Response given: Condition not met

Challenge: # TODO verify Concentration slopes of accumulation, PAO1-Pore_40 min < 9 strictly for this molecule: CNC(=C[N+](=O)[O-])NCCSCc1ccc(CN(C)C)o1 [OU-0000840, Ranitidine HCl]
Response given: Condition met

Challenge: # TODO verify Concentration slopes of accumulation, PAO1-Pore_40 min < 9 strictly for this molecule: C[C@@H]1CN(c2c(F)c(N)c3c(=O)c(C(=O)O)cn(C4CC4)c3c2F)C[C@H](C)N1 [OU-0000617, SPARFLOXACIN]
Response given: Condition not met

Provenance of the data: paper PMC9114115
